Values were extracted from patent US20250296929A1.

assay: Pharmacokinetics after 8 mg/kg oral (PO) administration, plasma; assay type: in vivo, CD1 mice; conditions: CD1, mouse, plasma, oral, 8 mg/kg, 8 mg/kg oral, 6 h, individual animals; read-out: Plasma concentration
assay_metric: concentration at 6 h (ng/mL)
Numbers only here, please. The scale is ng/mL.

Query string: Given `COc1cc2c(cc1OCCCCCCC(=O)O)C[C@@H](C(C)C)n1cc(C(=O)O)c(=O)cc1-2` , respond with its concentration at 6 h.
Result string: 2.85

* * *

assay: Pharmacokinetics after 3 mg/kg IV administration, plasma; format: in vivo, CD1 mice; details: CD1, mouse, plasma, intravenous, 3 mg/kg, 2 h, mean
assay_metric: concentration at 2 h (ng/mL)
Write it as a number; the unit ng/mL goes unstated.

Query string: Dear colleague, please send me the reported concentration at 2 h for `COc1cc2c(cc1OCCCCCCC(=O)O)C[C@@H](C(C)C)n1cc(C(=O)O)c(=O)cc1-2` when you can.
Result string: 4.42

* * *

Assay: Liver distribution after 8 mg/kg oral dose (liver vs plasma)
Assay type: in vivo, CD1 mice
Settings: CD1, mouse, liver/plasma, oral, 8 mg/kg, 4 h, mean, read-out: Ratio (liver/plasma) Mean
Procedure: Protocol for pharmacokinetic and tissue distribution studies. The pharmacokinetics of the compounds was studied in CD1 mice after intravenous (IV) and oral gavage (PO) administration. Mouse PK studies was conducted at 3 mg/kg (IV) and 8 mg/kg (PO). […] Pharmacokinetic parameters will be calculated using established non-compartmental methods. […]
assay_metric: Kp at 4 h

Query string: Input COc1cc2c(cc1OCCCCCCC(=O)O)C[C@@H](C(C)C)n1cc(C(=O)O)c(=O)cc1-2 [Example 6] , output reported Kp at 4 h.
Result string: 38.2

* * *

test: Pharmacokinetics after 3 mg/kg IV administration, plasma; type: in vivo, CD1 mice; settings: CD1, mouse, plasma, intravenous, 3 mg/kg, 5 min, mean, read-out: Mean plasma concentration
assay_metric: concentration at 5 min (ng/mL)
Note: unit ng/mL is implicit; provide only the numeric part.

Query string: Note concentration at 5 min for the compound shown: `COc1cc2c(cc1OCCCCCCC(=O)O)C[C@@H](C(C)C)n1cc(C(=O)O)c(=O)cc1-2`
Result string: 828

* * *

experiment: Liver distribution after 8 mg/kg oral dose (liver vs plasma); assay type: in vivo, CD1 mice; details: CD1, mouse, liver/plasma, oral, 8 mg/kg, 1 h, individual animals, read-out: Ratio (liver/plasma)
assay_metric: Kp at 1 h
Could you respond with only the numeric value?

Query string: Recall and state the measured Kp at 1 h for `COc1cc2c(cc1OCCCCCCC(=O)O)C[C@@H](C(C)C)n1cc(C(=O)O)c(=O)cc1-2` .
Result string: 63.1

* * *

assay: Pharmacokinetics after 8 mg/kg oral (PO) administration, plasma; format: in vivo, CD1 mice; settings: CD1, mouse, plasma, oral, 8 mg/kg, 8 mg/kg oral, 0.5 h, mean; read-out: Mean plasma concentration
assay_metric: concentration at 0.5 h (ng/mL)
Numbers only here, please. The scale is ng/mL.

Query string: In one line, give reported concentration at 0.5 h of the entry `COc1cc2c(cc1OCCCCCCC(=O)O)C[C@@H](C(C)C)n1cc(C(=O)O)c(=O)cc1-2` .
Result string: 9.44

* * *

assay: Liver distribution after 8 mg/kg oral dose (liver vs plasma); assay type: in vivo, CD1 mice; conditions: CD1, mouse, liver/plasma, oral, 8 mg/kg, 4 h, individual animals, read-out: Ratio (liver/plasma)
assay_metric: Kp at 4 h

Query string: Please report Kp at 4 h for the following molecule: `COc1cc2c(cc1OCCCCCCC(=O)O)C[C@@H](C(C)C)n1cc(C(=O)O)c(=O)cc1-2`
Result string: 28.9
